Measured values drawn from paper PMC6407917 for this set.

target: SERPINB2 (Homo sapiens, UniProt P05120); test: biochemical; parameters: species or system HEK293/K-562/placenta mixed human extract; Kinobeads chemoproteomic competition binding, quantified by TMT LC-MS/MS, dose response up to 20 uM
pIC50: −log10 of the molar value.
READOUT LABEL: pIC50

>  <MOL SMILES>
COc1ccccc1-c1n[nH]c2nc(N[C@H]3CC[C@H](NS(=O)(=O)CCC(F)(F)F)CC3)nc(OC)c12

>  <ENDPOINT VALUE>
≤ 4.70

$$$$

* * *

target: UniProt O76039; experiment: biochemical; parameters: species or system HEK293/K-562/placenta mixed human extract; Kinobeads chemoproteomic competition binding, quantified by TMT LC-MS/MS, dose response up to 20 uM
Sequence (O76039 whole entry): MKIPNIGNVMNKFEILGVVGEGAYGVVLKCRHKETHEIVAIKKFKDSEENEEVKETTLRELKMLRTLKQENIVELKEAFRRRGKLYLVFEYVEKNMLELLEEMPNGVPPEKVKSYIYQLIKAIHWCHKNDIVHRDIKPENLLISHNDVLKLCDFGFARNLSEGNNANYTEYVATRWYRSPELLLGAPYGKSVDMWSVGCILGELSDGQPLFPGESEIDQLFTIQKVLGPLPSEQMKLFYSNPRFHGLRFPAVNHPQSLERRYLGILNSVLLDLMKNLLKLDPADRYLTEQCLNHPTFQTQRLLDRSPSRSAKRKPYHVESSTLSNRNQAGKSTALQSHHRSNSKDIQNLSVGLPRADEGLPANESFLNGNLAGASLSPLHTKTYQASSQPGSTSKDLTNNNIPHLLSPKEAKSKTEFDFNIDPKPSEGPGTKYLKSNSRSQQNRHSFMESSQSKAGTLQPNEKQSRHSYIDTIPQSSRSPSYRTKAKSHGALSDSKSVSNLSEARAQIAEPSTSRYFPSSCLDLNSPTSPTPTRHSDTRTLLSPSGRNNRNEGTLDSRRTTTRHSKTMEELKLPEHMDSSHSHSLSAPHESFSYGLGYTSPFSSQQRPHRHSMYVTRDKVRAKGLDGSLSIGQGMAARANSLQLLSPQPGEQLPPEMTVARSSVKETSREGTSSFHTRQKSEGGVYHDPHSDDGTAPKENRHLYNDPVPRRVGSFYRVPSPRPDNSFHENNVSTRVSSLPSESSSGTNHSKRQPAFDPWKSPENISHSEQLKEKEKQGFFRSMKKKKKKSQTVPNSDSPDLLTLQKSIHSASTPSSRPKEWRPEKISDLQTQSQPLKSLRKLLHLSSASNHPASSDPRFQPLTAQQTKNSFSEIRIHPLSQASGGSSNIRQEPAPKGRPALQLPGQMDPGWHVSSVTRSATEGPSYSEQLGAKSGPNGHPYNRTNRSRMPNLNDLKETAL

>  <MOL SMILES>
COc1nc(N[C@H]2CC[C@H](NS(=O)(=O)CC(C)C)CC2)nc2[nH]nc(N3CCOC[C@H]3C)c12

>  <IC50>
≥ 20 µM

$$$$

* * *

target: PHKA2 (Homo sapiens, UniProt P46019)

>  <MOL SMILES>
COc1ccccc1-c1n[nH]c2nc(N[C@H]3CC[C@H](NS(=O)(=O)CCC(F)(F)F)CC3)nc(OC)c12

>  <IC50>
≥ 20 µM

$$$$

* * *

molecular target: OXSR1 (Homo sapiens); assay: biochemical; set-up: species or system HEK293/K-562/placenta mixed human extract; Kinobeads chemoproteomic competition binding, quantified by TMT LC-MS/MS, dose response up to 20 uM
Sequence (O95747 whole entry): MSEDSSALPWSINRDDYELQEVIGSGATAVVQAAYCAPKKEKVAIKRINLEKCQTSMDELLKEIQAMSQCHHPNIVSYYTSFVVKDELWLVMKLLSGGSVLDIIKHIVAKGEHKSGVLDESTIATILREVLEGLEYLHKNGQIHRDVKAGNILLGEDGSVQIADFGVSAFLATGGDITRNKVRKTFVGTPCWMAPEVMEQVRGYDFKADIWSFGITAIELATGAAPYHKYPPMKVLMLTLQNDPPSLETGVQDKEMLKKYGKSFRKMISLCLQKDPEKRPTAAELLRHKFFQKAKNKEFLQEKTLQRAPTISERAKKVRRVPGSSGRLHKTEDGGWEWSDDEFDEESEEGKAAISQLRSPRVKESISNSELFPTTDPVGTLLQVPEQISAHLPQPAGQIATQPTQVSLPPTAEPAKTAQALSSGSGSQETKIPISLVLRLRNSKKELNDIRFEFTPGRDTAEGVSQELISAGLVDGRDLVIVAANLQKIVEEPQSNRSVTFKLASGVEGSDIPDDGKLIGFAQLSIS
READOUT LABEL: IC50

>  <MOL SMILES>
COc1ccccc1-c1n[nH]c2nc(N[C@H]3CC[C@H](NS(=O)(=O)CCC(F)(F)F)CC3)nc(OC)c12

>  <READOUT LABEL>
IC50

>  <ENDPOINT VALUE>
≥ 20 µM

$$$$

* * *

molecular target: MAP2K4 (Homo sapiens, UniProt P45985); assay: biochemical; set-up: species or system HEK293/K-562/placenta mixed human extract; Kinobeads chemoproteomic competition binding, quantified by TMT LC-MS/MS, dose response up to 20 uM
Sequence (P45985 whole entry): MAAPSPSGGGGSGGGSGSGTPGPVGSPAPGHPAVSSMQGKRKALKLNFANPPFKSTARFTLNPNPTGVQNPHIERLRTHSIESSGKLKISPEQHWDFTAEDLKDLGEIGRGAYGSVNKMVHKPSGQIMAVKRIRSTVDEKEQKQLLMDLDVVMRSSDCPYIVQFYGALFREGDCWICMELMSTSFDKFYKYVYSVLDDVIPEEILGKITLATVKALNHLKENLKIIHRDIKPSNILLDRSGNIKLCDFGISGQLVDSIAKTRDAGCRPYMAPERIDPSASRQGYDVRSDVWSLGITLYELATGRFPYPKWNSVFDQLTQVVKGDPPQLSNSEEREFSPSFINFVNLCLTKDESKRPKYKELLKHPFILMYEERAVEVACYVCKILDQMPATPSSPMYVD
pIC50: −log10 of the molar value.

>  <MOL SMILES>
COc1nc(N[C@H]2CC[C@H](NS(=O)(=O)CC(C)C)CC2)nc2[nH]nc(N3CCOC[C@H]3C)c12

>  <pIC50>
≤ 4.70

$$$$

* * *

biological target: UniProtKB Q99640; experiment: biochemical; design: species or system HEK293/K-562/placenta mixed human extract; Kinobeads chemoproteomic competition binding, quantified by TMT LC-MS/MS, dose response up to 20 uM
Sequence (Q99640 whole entry): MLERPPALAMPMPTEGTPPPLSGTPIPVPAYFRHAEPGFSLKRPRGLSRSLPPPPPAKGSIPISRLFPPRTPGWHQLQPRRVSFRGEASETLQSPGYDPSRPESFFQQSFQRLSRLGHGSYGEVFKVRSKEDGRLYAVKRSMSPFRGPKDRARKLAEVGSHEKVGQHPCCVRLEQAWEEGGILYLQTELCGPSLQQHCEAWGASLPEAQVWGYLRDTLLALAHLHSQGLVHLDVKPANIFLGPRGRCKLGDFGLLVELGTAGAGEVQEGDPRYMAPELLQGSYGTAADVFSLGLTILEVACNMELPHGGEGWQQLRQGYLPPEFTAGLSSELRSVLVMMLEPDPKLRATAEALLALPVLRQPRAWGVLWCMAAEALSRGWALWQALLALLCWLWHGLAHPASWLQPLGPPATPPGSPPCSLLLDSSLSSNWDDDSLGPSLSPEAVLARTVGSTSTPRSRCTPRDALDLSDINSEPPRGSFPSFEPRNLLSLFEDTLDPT
pIC50: −log10 of the molar value.

>  <MOL SMILES>
COc1ccccc1-c1n[nH]c2nc(N[C@H]3CC[C@H](NS(=O)(=O)CCC(F)(F)F)CC3)nc(OC)c12

>  <pIC50>
≤ 4.70

$$$$

* * *

target: LRRK2 (Homo sapiens); experiment: biochemical; parameters: species or system HEK293/K-562/placenta mixed human extract; Kinobeads chemoproteomic competition binding, quantified by TMT LC-MS/MS, dose response up to 20 uM
Sequence (Q5S007 whole entry): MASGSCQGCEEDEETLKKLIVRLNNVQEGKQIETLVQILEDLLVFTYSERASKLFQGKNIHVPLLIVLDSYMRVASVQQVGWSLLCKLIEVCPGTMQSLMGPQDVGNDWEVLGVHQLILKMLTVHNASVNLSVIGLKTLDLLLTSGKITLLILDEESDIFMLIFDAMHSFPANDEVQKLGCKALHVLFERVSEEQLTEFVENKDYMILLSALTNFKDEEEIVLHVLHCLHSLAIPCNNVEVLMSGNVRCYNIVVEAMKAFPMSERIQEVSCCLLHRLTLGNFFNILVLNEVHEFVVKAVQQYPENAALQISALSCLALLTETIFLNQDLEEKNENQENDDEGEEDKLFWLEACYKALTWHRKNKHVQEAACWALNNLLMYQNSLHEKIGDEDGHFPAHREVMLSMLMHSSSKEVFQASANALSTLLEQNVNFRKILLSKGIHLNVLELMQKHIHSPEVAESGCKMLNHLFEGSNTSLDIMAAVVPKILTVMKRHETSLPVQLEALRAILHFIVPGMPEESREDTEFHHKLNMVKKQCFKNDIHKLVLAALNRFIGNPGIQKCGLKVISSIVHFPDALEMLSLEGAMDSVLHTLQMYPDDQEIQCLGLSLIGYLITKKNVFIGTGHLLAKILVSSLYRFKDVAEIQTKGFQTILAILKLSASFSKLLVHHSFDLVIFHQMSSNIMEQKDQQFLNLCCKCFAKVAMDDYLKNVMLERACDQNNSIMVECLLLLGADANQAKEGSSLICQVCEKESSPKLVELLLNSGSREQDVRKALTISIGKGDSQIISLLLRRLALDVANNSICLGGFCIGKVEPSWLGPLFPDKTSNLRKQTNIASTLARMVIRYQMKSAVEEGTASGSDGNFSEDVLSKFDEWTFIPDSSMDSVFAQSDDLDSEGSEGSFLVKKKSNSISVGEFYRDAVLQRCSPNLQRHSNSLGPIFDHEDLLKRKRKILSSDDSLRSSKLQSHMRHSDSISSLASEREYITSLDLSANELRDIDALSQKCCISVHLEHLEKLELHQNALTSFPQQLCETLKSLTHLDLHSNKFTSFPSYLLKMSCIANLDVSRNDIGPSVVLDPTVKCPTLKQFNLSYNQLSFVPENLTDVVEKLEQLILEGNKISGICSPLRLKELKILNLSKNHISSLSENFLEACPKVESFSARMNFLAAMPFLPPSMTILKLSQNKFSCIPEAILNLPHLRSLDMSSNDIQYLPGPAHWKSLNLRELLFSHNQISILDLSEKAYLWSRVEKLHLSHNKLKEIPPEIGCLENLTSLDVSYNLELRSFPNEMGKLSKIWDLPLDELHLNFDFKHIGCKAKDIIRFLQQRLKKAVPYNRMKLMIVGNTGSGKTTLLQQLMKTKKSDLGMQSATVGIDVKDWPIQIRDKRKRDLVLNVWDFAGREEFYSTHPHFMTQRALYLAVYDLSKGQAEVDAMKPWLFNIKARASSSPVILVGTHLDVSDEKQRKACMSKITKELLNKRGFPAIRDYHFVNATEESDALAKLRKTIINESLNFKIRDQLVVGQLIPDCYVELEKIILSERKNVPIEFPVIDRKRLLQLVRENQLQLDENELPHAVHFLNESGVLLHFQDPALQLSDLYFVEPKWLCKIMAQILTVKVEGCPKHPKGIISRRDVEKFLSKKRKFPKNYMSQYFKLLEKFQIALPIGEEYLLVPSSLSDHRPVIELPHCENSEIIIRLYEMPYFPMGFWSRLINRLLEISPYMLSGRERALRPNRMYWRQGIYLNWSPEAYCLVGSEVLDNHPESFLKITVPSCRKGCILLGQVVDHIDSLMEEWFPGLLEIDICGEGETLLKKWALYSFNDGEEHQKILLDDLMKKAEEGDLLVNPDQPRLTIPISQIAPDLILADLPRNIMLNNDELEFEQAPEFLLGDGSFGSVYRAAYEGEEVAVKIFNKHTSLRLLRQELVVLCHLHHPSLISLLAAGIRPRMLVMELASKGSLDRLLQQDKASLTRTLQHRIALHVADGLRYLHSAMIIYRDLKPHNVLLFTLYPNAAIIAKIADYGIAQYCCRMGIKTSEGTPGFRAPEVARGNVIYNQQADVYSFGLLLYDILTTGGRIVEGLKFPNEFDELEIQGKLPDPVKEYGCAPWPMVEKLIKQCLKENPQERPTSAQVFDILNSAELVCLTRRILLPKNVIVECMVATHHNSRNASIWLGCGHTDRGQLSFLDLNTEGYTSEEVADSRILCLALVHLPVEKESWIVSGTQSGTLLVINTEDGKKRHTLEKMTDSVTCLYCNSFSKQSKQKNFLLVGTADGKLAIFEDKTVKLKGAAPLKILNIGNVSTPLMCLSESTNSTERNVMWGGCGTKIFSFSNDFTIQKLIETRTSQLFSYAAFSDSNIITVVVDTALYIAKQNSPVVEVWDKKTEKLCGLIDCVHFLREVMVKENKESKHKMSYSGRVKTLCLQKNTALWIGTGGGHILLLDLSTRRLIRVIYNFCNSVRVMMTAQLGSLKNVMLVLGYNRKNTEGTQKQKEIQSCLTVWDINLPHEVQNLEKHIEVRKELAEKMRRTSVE
pIC50: −log10 of the molar value.
READOUT LABEL: pIC50

>  <MOL SMILES>
COc1nc(N[C@H]2CC[C@H](NS(=O)(=O)CC(C)C)CC2)nc2[nH]nc(N3CCOC[C@H]3C)c12

>  <ENDPOINT VALUE>
≤ 4.70

$$$$
